Every entry's value here was drawn from the supplement of paper PMC4862054.

# Test system: HCC1599
# ASSAY PROTOCOL: normalised response (% of control), CellTiter-Glo; higher = more viable cells (100 = DMSO, 0 = benzethonium chloride kill control)
# CONDITIONS: incubation time: 72 h
RECORDED ENDPOINT: normalised response (%)
Your answer is read as %, so omit the unit and give the number.

Request: Tell me normalised response reported for O=P1(N(CCCl)CCCl)NCCCO1 (configuration not stated) [Cyclophosphamide] (4 nM)
Response: 107

Request: Tell me normalised response reported for CCc1c2c(nc3ccc(OC(=O)N4CCC(N5CCCCC5)CC4)cc13)-c1cc3c(c(=O)n1C2)COC(=O)[C@]3(O)CC [Irinotecan] (10 nM)
Response: 97.5

Request: Tell me normalised response reported for N#Cc1ccc(COC[C@H]2O[C@@H](n3c(NCc4ccc(Cl)c(Cl)c4)nc4c(N)ncnc43)[C@H](O)[C@@H]2O)cc1 (10 nM)
Response: 92.3

Request: Tell me normalised response reported for CNC(=O)c1ccc(N2C(=S)N(c3ccc(C#N)c(C(F)(F)F)c3)C(=O)C2(C)C)cc1F [Enzalutamide] (10 nM)
Response: 95.8

Request: Tell me normalised response reported for Nc1cc(C(F)(F)F)c(-c2cc(N3CCOCC3)nc(N3CCOCC3)n2)cn1 [Buparlisib] (10 nM)
Response: 108

Request: Tell me normalised response reported for COc1cc(O)c2c(c1)/C=C/C[C@H](O)[C@H](O)C(=O)/C=C\C[C@H](C)OC2=O [(5Z)-7-Oxozeaenol] (1000 nM)
Response: 92

Request: Tell me normalised response reported for CCn1c(-c2nonc2N)nc2cnc(Oc3cccc(NC(=O)c4ccc(OCCN5CCOCC5)cc4)c3)cc21 (1 nM)
Response: 103
